System: UACC-62 melanoma
procedure summary: NCI tumour cell line growth inhibition, 48 h
value kind: TGI

{"columns": ["compound", "recorded value"],
 "data": [
  ["NNC(=S)N/N=C(/C(=O)Nc1ccc([N+](=O)[O-])cc1)c1nc2ccc([N+](=O)[O-])cc2[nH]c1=O", "> 100 µM"],
  ["O=C1OC(OC/C(Br)=C(/Br)COC2OC(=O)C(Cl)=C2Cl)C(Cl)=C1Cl (stereo unspecified)", "29.1 µM"],
  ["CNC(=O)c1cncc(/C=C/c2c(Cl)cccc2Cl)c1", "> 25 µM"],
  ["O=C1c2c(ccc3c2CCCC3)CC1Cc1ccc2c(c1)CCCC2 (stereo unspecified)", "> 100 µM"],
  ["CCCOP(=S)(N1CC1)N1CC1", "> 100 µM"],
  ["O=C(O)CCc1nc2cc3ccccc3cc2[nH]c1=O", "> 100 µM"]
]}
